# methodDescription: Inhibition of bovine tubulin polymerization after 20 mins by spectrophotometry
# Set-up: species or system Bos taurus
measurementType: IC50 (µg/mL)

Some solved entries appear below for comparison.
>  <compound>
Cc1ccc(C(=O)/C=C/c2cc(Br)ccc2Oc2c([N+](=O)[O-])cc(C(F)(F)F)cc2[N+](=O)[O-])cc1

>  <IC50 [µg/mL]>
6.41

$$$$
>  <compound>
O=C(/C=C/c1cc(Br)ccc1Oc1c([N+](=O)[O-])cc(C(F)(F)F)cc1[N+](=O)[O-])c1ccc(Cl)cc1

>  <IC50 [µg/mL]>
7.14

$$$$
>  <compound>
COc1ccc(C(=O)/C=C/c2cc(Br)cc(Br)c2Oc2c([N+](=O)[O-])cc(C(F)(F)F)cc2[N+](=O)[O-])cc1

>  <IC50 [µg/mL]>
6.02

$$$$

(1) Cc1ccc(C(=O)/C=C/c2cc(Cl)ccc2Oc2c([N+](=O)[O-])cc(C(F)(F)F)cc2[N+](=O)[O-])cc1
(2) O=C(/C=C/c1cc(Cl)ccc1Oc1c([N+](=O)[O-])cc(C(F)(F)F)cc1[N+](=O)[O-])c1ccc(F)cc1
// query Which item exceeds the other in IC50, 1 or 2 ? Answer format: the label of the selected item.
// result 2

(A) COc1ccc(C(=O)/C=C/c2cc(Cl)ccc2Oc2c([N+](=O)[O-])cc(C(F)(F)F)cc2[N+](=O)[O-])cc1
(B) O=C(/C=C/c1cc(Cl)cc(Cl)c1Oc1c([N+](=O)[O-])cc(C(F)(F)F)cc1[N+](=O)[O-])c1ccc(Br)cc1
(C) O=C(/C=C/c1cc(Br)cc(Br)c1Oc1c([N+](=O)[O-])cc(C(F)(F)F)cc1[N+](=O)[O-])c1ccc(F)cc1
// query Arrange these compounds by their IC50, starting with the largest number. Labels, ranked as asked.
// result C, B, A

(A) Cc1ccc(C(=O)/C=C/c2cc(Br)cc(Br)c2Oc2c([N+](=O)[O-])cc(C(F)(F)F)cc2[N+](=O)[O-])cc1
(B) O=C(/C=C/c1cc(Br)ccc1Oc1c([N+](=O)[O-])cc(C(F)(F)F)cc1[N+](=O)[O-])c1ccc(F)cc1
// query Quick one: lower IC50, A or B ? Answer format: the label of the selected item.
// result A
(A: 5.68 µg/mL, B: 12.31 µg/mL)
